Ref: ChEMBL document CHEMBL3856205

Documented remaining at 0.5 h, 1 µM across a set of molecules
# test-summary: in vitro
# condition-set: rat, liver microsomes
# Description: Metabolic stability in rat liver microsomes assessed as compound remaining at 1 uM after 30 mins in presence of NADPH by LC-MS/MS analysis
Write it as a number; the unit % goes unstated.

Here are 2 molecules together with their reported answers.
• CN(C)CCOc1ccc(/C(=C(/CCCO)c2ccccc2)c2ccc(O)cc2)cc1.Cl = 26
• Cc1ccc(/C(=C(\CCCO)c2ccccc2)c2ccc(OCCN(C)C)cc2)cc1.Cl = 25

Exercise: Given the entry CNCCOc1ccc(/C(=C(/CCCO)c2ccccc2)c2ccc(O)cc2)cc1.Cl , report its measured remaining at 0.5 h, 1 µM.
Key: 79

---

# test-summary: in vitro
# condition-set: mouse, liver microsomes
# Description: Metabolic stability in mouse liver microsomes assessed as compound remaining at 1 uM after 30 mins in presence of NADPH by LC-MS/MS analysis
measured-quantity: remaining at 0.5 h, 1 µM (%)
Write it as a number; the unit % goes unstated.

Here are 3 molecules together with their reported answers.
* CNCCOc1ccc(/C(=C(/CCCO)c2ccccc2)c2ccc(O)cc2)cc1.Cl | 20
* Cc1ccc(/C(=C(\CCCO)c2ccccc2)c2ccc(OCCN(C)C)cc2)cc1.Cl | 16
* CN(C)CCOc1ccc(/C(=C(/CCC(F)F)c2ccccc2)c2ccc(O)cc2)cc1.Cl | 91

Exercise: Given the entry CN(C)CCOc1ccc(/C(=C(/CCCF)c2ccccc2)c2ccc(O)cc2)cc1.Cl , report its measured remaining at 0.5 h, 1 µM.
Key: 24

Exercise: Given the entry CN(C)CCCOc1ccc(/C(=C(/CCCO)c2ccccc2)c2ccc(O)cc2)cc1.Cl , report its measured remaining at 0.5 h, 1 µM.
Key: 13

Exercise: Given the entry CCN(CC)CCOc1ccc(/C(=C(/CCCO)c2ccccc2)c2ccc(O)cc2)cc1.Cl , report its measured remaining at 0.5 h, 1 µM.
Key: 10

Exercise: Given the entry CN(C)CCOc1ccc(/C(=C(/CCCO)c2ccccc2)c2ccc(Br)cc2)cc1.Cl , report its measured remaining at 0.5 h, 1 µM.
Key: 35

---

Documented activity at 10 µM across a set of compounds
# subject-of-test: CYP2C19 (Homo sapiens, UniProt P33261)
# Sequence (P33261 whole entry): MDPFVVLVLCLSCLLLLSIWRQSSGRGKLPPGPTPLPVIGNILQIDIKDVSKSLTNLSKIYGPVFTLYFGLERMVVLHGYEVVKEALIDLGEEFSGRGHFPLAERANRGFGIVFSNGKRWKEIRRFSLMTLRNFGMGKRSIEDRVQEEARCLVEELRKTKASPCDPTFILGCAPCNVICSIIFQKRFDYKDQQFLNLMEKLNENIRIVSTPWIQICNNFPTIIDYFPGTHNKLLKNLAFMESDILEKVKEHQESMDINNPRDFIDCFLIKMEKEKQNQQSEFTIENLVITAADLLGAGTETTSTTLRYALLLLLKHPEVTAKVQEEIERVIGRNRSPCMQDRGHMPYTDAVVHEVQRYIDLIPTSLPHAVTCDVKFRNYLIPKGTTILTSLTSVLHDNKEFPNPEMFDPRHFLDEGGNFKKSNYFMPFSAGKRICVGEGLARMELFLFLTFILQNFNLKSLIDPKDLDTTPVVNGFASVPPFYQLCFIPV
# test-summary: Inhibition of CYP2C19 in human liver microsomes assessed as remaining activity by measuring S-mephenytoin 4-hydroxylase activity at 10 uM pre-incubated for 5 mins followed by NADPH regenerating system addition by LC-MS/MS analysis relative to control
# Format: ADME
# condition-set: probe S-mephenytoin (4-hydroxylation), read-out: Activity
Write it as a number; the unit % goes unstated.

Here are 6 compounds together with their reported answers.
• CN(C)CCOc1ccc(/C(=C(/CCCO)c2ccccc2)c2ccc(O)cc2)cc1.Cl = 78
• CNCCOc1ccc(/C(=C(/CCCO)c2ccccc2)c2ccc(O)cc2)cc1.Cl = 76
• CN(C)CCCOc1ccc(/C(=C(/CCCO)c2ccccc2)c2ccc(O)cc2)cc1.Cl = 64
• CN(C)CCOc1ccc(/C(=C(/CCC(F)F)c2ccccc2)c2ccc(O)cc2)cc1.Cl = 11
• CN(C)CCOc1ccc(/C(=C(/CCCF)c2ccccc2)c2ccc(O)cc2)cc1.Cl = 72
• CN(C)CCOc1ccc(/C(=C(/CCCO)c2ccccc2)c2ccc(Br)cc2)cc1.Cl = 61

Exercise: Given the entry CCN(CC)CCOc1ccc(/C(=C(/CCCO)c2ccccc2)c2ccc(O)cc2)cc1.Cl , report its measured activity at 10 µM.
Key: 70

---

Documented IC50 across a set of compounds
# subject-of-test: Steroid hormone receptor ERR1 (Homo sapiens)
# Sequence (P11474 whole entry): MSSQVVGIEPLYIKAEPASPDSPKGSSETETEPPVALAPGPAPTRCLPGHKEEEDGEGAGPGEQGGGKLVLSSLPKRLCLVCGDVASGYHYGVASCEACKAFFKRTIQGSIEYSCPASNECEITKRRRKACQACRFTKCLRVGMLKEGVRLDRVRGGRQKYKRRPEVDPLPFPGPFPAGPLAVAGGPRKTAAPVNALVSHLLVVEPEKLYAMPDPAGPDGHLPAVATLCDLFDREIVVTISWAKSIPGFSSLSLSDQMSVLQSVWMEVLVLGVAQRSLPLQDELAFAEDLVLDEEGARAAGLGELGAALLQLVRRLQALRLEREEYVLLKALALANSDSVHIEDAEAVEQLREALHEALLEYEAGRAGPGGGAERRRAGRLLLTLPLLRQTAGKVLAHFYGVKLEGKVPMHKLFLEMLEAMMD

Here are 2 compounds together with their reported answers.
* CCN(CC)CCOc1ccc(/C(=C(/CCCO)c2ccccc2)c2ccc(O)cc2)cc1.Cl | > 10 µM
* CN(C)CCCOc1ccc(/C(=C(/CCCO)c2ccccc2)c2ccc(O)cc2)cc1.Cl | > 10 µM

Exercise: Given the entry CN(C)CCOc1ccc(/C(=C(/CCCO)c2ccccc2)c2ccc(Br)cc2)cc1.Cl , report its measured IC50.
Key: > 10 µM

---

A set of compounds tested on Estrogen receptor (Homo sapiens, UniProt P03372), with measured IC50:
Write it as a number; the unit µM goes unstated.

* CNCCOc1ccc(/C(=C(/CCCO)c2ccccc2)c2ccc(O)cc2)cc1.Cl | 3.34

Please find the next compound below.
Exercise: API: value(readout=IC50, system=Estrogen receptor (Homo sapiens, UniProt P03372)) for record CCN(CC)CCOc1ccc(/C(=C(/CCCO)c2ccccc2)c2ccc(O)cc2)cc1.Cl
Key: 0.875

---

# subject-of-test: CYP2C9 (Homo sapiens, UniProt P11712)
# Sequence (P11712 whole entry): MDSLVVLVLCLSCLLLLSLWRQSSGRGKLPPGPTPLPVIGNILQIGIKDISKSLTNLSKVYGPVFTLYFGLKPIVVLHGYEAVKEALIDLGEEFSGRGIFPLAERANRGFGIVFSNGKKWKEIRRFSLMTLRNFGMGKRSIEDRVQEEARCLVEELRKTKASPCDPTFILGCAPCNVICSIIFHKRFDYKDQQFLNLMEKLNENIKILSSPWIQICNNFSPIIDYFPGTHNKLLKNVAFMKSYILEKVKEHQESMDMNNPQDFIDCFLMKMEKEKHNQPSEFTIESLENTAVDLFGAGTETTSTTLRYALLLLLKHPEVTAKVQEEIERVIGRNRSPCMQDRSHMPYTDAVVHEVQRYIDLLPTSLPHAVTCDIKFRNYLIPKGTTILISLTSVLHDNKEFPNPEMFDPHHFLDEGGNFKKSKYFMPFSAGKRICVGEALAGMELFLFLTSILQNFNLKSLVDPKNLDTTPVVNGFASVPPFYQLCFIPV
# test-summary: Inhibition of CYP2C9 in human liver microsomes assessed as remaining activity by measuring tolbutamide 4-hydroxylase activity at 10 uM pre-incubated for 5 mins followed by NADPH regenerating system addition by LC-MS/MS analysis relative to control
# Format: ADME
# condition-set: probe tolbutamide (4-hydroxylation), read-out: Activity
Mark Met only for activity at 10 µM values smaller than 70%; exact matches and larger values are Not met.

* CCN(CC)CCOc1ccc(/C(=C(/CCCO)c2ccccc2)c2ccc(O)cc2)cc1.Cl | Not met
* CN(C)CCOc1ccc(/C(=C(/CCCF)c2ccccc2)c2ccc(O)cc2)cc1.Cl | Not met
* CN(C)CCOc1ccc(/C(=C(/CCCO)c2ccccc2)c2ccc(Br)cc2)cc1.Cl | Not met
* CNCCOc1ccc(/C(=C(/CCCO)c2ccccc2)c2ccc(O)cc2)cc1.Cl | Met
* Cc1ccc(/C(=C(\CCCO)c2ccccc2)c2ccc(OCCN(C)C)cc2)cc1.Cl | Met
* CN(C)CCOc1ccc(/C(=C(/CCCO)c2ccccc2)c2ccc(O)cc2)cc1.Cl | Not met

Exercise: API: query returns whether the molecule falls strictly under 70% in activity at 10 µM. Query: CN(C)CCCOc1ccc(/C(=C(/CCCO)c2ccccc2)c2ccc(O)cc2)cc1.Cl
Key: Not met

Exercise: API: query returns whether the molecule falls strictly under 70% in activity at 10 µM. Query: CN(C)CCOc1ccc(/C(=C(/CCC(F)F)c2ccccc2)c2ccc(O)cc2)cc1.Cl
Key: Met

---

# test-summary: in vitro
# condition-set: human, liver microsomes
# Description: Metabolic stability in human liver microsomes assessed as compound remaining at 1 uM after 30 mins in presence of NADPH by LC-MS/MS analysis
Mark 1 (yes) only for remaining at 0.5 h, 1 µM values smaller than 70%; exact matches and larger values are 0 (no).

* CNCCOc1ccc(/C(=C(/CCCO)c2ccccc2)c2ccc(O)cc2)cc1.Cl | 0 (no)

Exercise: API: query returns whether the molecule falls strictly under 70% in remaining at 0.5 h, 1 µM. Query: CN(C)CCOc1ccc(/C(=C(/CCC(F)F)c2ccccc2)c2ccc(O)cc2)cc1.Cl
Key: 0 (no)

Exercise: API: query returns whether the molecule falls strictly under 70% in remaining at 0.5 h, 1 µM. Query: CN(C)CCOc1ccc(/C(=C(/CCCO)c2ccccc2)c2ccc(Br)cc2)cc1.Cl
Key: 1 (yes)

Exercise: API: query returns whether the molecule falls strictly under 70% in remaining at 0.5 h, 1 µM. Query: CN(C)CCOc1ccc(/C(=C(/CCCO)c2ccccc2)c2ccc(O)cc2)cc1.Cl
Key: 1 (yes)

---

# subject-of-test: CYP3A4 (Homo sapiens, UniProt P08684)
# Sequence (P08684 whole entry): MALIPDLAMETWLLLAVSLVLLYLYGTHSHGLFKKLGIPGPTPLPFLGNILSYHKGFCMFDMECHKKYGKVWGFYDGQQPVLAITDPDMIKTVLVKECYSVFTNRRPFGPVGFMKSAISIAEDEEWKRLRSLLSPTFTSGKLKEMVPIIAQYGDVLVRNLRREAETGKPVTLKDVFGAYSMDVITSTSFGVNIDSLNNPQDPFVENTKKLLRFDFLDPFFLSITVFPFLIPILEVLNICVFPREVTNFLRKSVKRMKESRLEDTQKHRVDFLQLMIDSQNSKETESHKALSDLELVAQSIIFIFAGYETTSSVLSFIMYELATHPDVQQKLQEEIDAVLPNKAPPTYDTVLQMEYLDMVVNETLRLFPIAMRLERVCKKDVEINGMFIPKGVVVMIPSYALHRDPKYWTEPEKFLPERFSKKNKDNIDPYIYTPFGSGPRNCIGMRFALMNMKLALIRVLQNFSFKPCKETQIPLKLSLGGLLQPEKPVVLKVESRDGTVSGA
# test-summary: Inhibition of CYP3A4 in human liver microsomes assessed as remaining activity by measuring midazolam 1'-hydroxylase activity at 10 uM pre-incubated for 5 mins followed by NADPH regenerating system addition by LC-MS/MS analysis relative to control
# Assay type: ADME
# condition-set: probe midazolam (1'-hydroxylation), read-out: Activity
Documented activity at 10 µM across a set of compounds
Write it as a number; the unit % goes unstated.

Here are 5 compounds together with their reported answers.
* CN(C)CCOc1ccc(/C(=C(/CCC(F)F)c2ccccc2)c2ccc(O)cc2)cc1.Cl | 11
* CNCCOc1ccc(/C(=C(/CCCO)c2ccccc2)c2ccc(O)cc2)cc1.Cl | 85
* CN(C)CCOc1ccc(/C(=C(/CCCF)c2ccccc2)c2ccc(O)cc2)cc1.Cl | 93
* CN(C)CCOc1ccc(/C(=C(/CCCO)c2ccccc2)c2ccc(Br)cc2)cc1.Cl | 88
* CN(C)CCCOc1ccc(/C(=C(/CCCO)c2ccccc2)c2ccc(O)cc2)cc1.Cl | 79

Exercise: Given the entry CN(C)CCOc1ccc(/C(=C(/CCCO)c2ccccc2)c2ccc(O)cc2)cc1.Cl , report its measured activity at 10 µM.
Key: 83

Exercise: Given the entry CCN(CC)CCOc1ccc(/C(=C(/CCCO)c2ccccc2)c2ccc(O)cc2)cc1.Cl , report its measured activity at 10 µM.
Key: 93
